These measurements were taken from ChEMBL document CHEMBL2406947.

- target-under-test: Amyloid-beta precursor protein (Homo sapiens)
- experimental-protocol: Inhibition of amyloid beta (1-42) self-mediated aggregation (unknown origin) after 5 days by thioflavin T fluorescence method
Measured IC50 accompanies every entry in the list below.
experimental-readout: IC50

INSERT INTO measurements (chemical_smiles, experimental_readout, measured) VALUES
  ('CCOCCOc1cccc(/C=C/C(=O)c2ccc(OC)cc2O)c1', 'IC50', '10.5 µM'),
  ('CCOCCCOc1ccc(/C=C/C(=O)c2ccc(OC)cc2O)cc1OC', 'IC50', '5.8 µM'),
  ('COc1ccc(/C=C/C(=O)c2ccc(OC)cc2O)cc1', 'IC50', '8.4 µM'),
  ('CCCNC(=O)c1ccc(/C=C/C(=O)c2ccc(OC)cc2O)cc1', 'IC50', '19.9 µM'),
  ('COC(=O)c1ccc(/C=C/C(=O)c2ccc(OC)cc2O)cc1', 'IC50', '23.8 µM'),
  ('COc1ccc(C(=O)/C=C/c2ccc(C(=O)Nc3ccccc3OC)cc2)c(O)c1', 'IC50', '7.3 µM'),
  ('COc1ccc(C(=O)/C=C/c2ccc(C(=O)O)cc2)c(O)c1', 'IC50', '18.5 µM'),
  ('COc1ccc(C(=O)/C=C/c2ccc(C(=O)NCc3ccccc3)cc2)c(O)c1', 'IC50', '18.9 µM'),
  ('COc1ccc(C(=O)/C=C/c2ccc(C(=O)N3CCCC3)cc2)c(O)c1', 'IC50', '14.6 µM'),
  ('COc1ccc(C(=O)/C=C/c2ccc(C(=O)Nc3cc([N+](=O)[O-])ccc3O)cc2)c(O)c1', 'IC50', '13.3 µM');

###

- experimental-protocol: Cytotoxicity against human SH-SY5Y cells after 48 hrs by MTT assay
- Assay type: cell-based
pIC50: −log10 of the molar value.
Measured pIC50 accompanies every entry in the list below.
experimental-readout: pIC50

INSERT INTO measurements (chemical_smiles, measured) VALUES
  ('COc1ccc(C(=O)/C=C/c2ccc(C(=O)Nc3ccc(C)cc3C)cc2)c(O)c1', '< 4.00'),
  ('COc1ccc(C(=O)/C=C/c2ccc(C(=O)N3CCOCC3)cc2)c(O)c1', '< 4.00'),
  ('COc1ccc(C(=O)/C=C/c2ccc(C(=O)N(C)c3ccccc3)cc2)c(O)c1', '< 4.00'),
  ('COc1ccc(C(=O)/C=C/c2ccc(OCc3ccccc3)cc2)c(O)c1', '< 4.00');

###

- target-under-test: Amyloid-beta precursor protein (Homo sapiens, UniProt P05067)
- Sequence (P05067 whole entry): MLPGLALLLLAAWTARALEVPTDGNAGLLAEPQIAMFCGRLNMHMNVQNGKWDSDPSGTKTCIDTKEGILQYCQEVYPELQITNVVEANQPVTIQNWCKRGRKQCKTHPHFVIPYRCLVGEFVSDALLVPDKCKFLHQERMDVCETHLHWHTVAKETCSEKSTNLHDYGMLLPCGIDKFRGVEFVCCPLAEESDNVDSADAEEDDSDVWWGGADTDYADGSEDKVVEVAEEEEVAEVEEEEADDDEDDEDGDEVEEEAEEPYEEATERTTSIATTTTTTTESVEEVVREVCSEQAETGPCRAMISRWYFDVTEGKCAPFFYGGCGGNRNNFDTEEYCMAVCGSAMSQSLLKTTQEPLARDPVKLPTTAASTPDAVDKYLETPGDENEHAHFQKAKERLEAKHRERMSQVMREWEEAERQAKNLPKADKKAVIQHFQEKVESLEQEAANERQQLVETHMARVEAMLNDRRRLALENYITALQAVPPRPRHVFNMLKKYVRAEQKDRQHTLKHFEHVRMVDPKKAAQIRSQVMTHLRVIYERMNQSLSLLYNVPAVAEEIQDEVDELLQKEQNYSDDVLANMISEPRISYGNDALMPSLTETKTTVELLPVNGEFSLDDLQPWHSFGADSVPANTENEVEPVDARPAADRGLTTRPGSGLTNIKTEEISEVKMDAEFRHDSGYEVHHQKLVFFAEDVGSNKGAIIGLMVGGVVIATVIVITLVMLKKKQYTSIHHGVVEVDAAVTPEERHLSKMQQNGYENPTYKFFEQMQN
- experimental-protocol: Inhibition of amyloid beta (1-42) self-mediated aggregation (unknown origin) after 5 days by thioflavin T fluorescence method
experimental-readout: IC50 (µM)

INSERT INTO measurements (chemical_smiles, target_under_test, experimental_readout, unit_annotation, measured) VALUES
  ('COc1ccc(C(=O)/C=C/c2ccc(C(=O)N3CCN(C)CC3)cc2)c(O)c1', 'Amyloid-beta precursor protein (Homo sapiens, UniProt P05067)', 'IC50', 'µM', 2.2),
  ('COc1ccc(C(=O)/C=C/c2cc(OC)c(OC)cc2OC)c(O)c1', 'Amyloid-beta precursor protein (Homo sapiens, UniProt P05067)', 'IC50', 'µM', 10.2),
  ('COc1ccc(C(=O)/C=C/c2ccc(C(=O)N3CCCCC3)cc2)c(O)c1', 'Amyloid-beta precursor protein (Homo sapiens, UniProt P05067)', 'IC50', 'µM', 5.9),
  ('COc1ccc(C(=O)/C=C/c2ccc(OCCCOc3ccccc3)c(OC)c2)c(O)c1', 'Amyloid-beta precursor protein (Homo sapiens, UniProt P05067)', 'IC50', 'µM', 10.9),
  ('COc1ccc(C(=O)/C=C/c2ccc(C(=O)Nc3ccc(C)cc3C)cc2)c(O)c1', 'Amyloid-beta precursor protein (Homo sapiens, UniProt P05067)', 'IC50', 'µM', 8.3),
  ('COc1ccc(C(=O)/C=C/c2ccc(C(=O)NCCc3ccccc3)cc2)c(O)c1', 'Amyloid-beta precursor protein (Homo sapiens, UniProt P05067)', 'IC50', 'µM', 19.1);
